PROTOCOL_DESCRIPTION: Plasma pharmacokinetics of i.v. paclitaxel 175 mg/m2 as 3-hour infusion in cancer patients (limited sampling model)
Format: in vivo, human
EXPERIMENTAL_CONDITIONS: human, plasma, iv, 175 mg/m2, AUC, i.v. paclitaxel, mean SD, n = 6; 175 mg/m2, 3-hour infusion
QUANTITY: AUC (µM·h)
Give the quantity in µM·h, number only.

Challenge: Sample "CC(=O)O[C@H]1C(=O)[C@@]2(C)[C@H]([C@H](OC(=O)c3ccccc3)[C@]3(O)C[C@H](OC(=O)[C@H](O)[C@@H](NC(=O)c4ccccc4)c4ccccc4)C(C)=C1C3(C)C)[C@]1(OC(C)=O)CO[C@@H]1C[C@@H]2O" — what was its AUC?
Response given: 15.9

###

PROTOCOL_DESCRIPTION: Plasma pharmacokinetics of i.v. paclitaxel 175 mg/m2 as 3-hour infusion in cancer patients (limited sampling model)
Assay type: in vivo, human
EXPERIMENTAL_CONDITIONS: human, plasma, iv, 175 mg/m2, AUC, i.v. paclitaxel, individual patients 1-6; 175 mg/m2, 3-hour infusion
QUANTITY: AUC
Hey, just the number and the unit after it is fine.

Challenge: Query (compound): CC(=O)O[C@H]1C(=O)[C@@]2(C)[C@H]([C@H](OC(=O)c3ccccc3)[C@]3(O)C[C@H](OC(=O)[C@H](O)[C@@H](NC(=O)c4ccccc4)c4ccccc4)C(C)=C1C3(C)C)[C@]1(OC(C)=O)CO[C@@H]1C[C@@H]2O [paclitaxel] ; field requested: AUC
Response given: 18.6 µM·h

###

PROTOCOL_DESCRIPTION: Plasma pharmacokinetics of oral paclitaxel 120 mg/m2 combined with 1000 mg oral GF120918 in cancer patients (HPLC, non-compartmental)
EXPERIMENTAL_CONDITIONS: after oral paclitaxel 120 mg/m2 + GF120918; n = 5; mean SD
QUANTITY: mean AUCt of paclitaxel metabolite (nM·h)
# value in nM·h; strip the unit string

Some solved cases for reference:
{"columns": ["COMPOUND", "mean AUCt of paclitaxel metabolite [nM·h]"],
 "data": [
  ["CC(=O)O[C@H]1C(=O)[C@@]2(C)[C@H]([C@H](OC(=O)c3ccccc3)[C@]3(O)C[C@H](OC(=O)[C@H](O)[C@@H](NC(=O)c4ccccc4)c4ccccc4)C(C)=C1C3(C)C)[C@]1(OC(C)=O)CO[C@@H]1[C@@H](O)[C@@H]2O [6-hydroxypaclitaxel]", 400],
  ["CC(=O)O[C@H]1C(=O)[C@@]2(C)[C@H]([C@H](OC(=O)c3ccccc3)[C@]3(O)C[C@H](OC(=O)[C@H](O)[C@@H](NC(=O)c4ccccc4)c4ccc(O)cc4)C(C)=C1C3(C)C)[C@]1(OC(C)=O)CO[C@@H]1[C@@H](O)[C@@H]2O [6,3p-dihydroxypaclitaxel]", 240]
]}

Could you now look at the following compound, please?
Challenge: Find the recorded mean AUCt of paclitaxel metabolite belonging to CC(=O)O[C@H]1C(=O)[C@@]2(C)[C@H]([C@H](OC(=O)c3ccccc3)[C@]3(O)C[C@H](OC(=O)[C@H](O)[C@@H](NC(=O)c4ccccc4)c4ccc(O)cc4)C(C)=C1C3(C)C)[C@]1(OC(C)=O)CO[C@@H]1C[C@@H]2O [3p-hydroxypaclitaxel] and report it.
Response given: 360
